Hey, just so you know, these numbers are from ChEMBL document CHEMBL1681638.

System: GT1-7
Assay: Antiprion activity in human transmissible spongiform encephalopathies agent Fukuoka-1 prion infected GT1-7 cells assessed as proteinase K-resistant proteins at 10 uM after 3 days Western blotting analysis relative to control
Format: cell-based
Entries annotated with measured Activity
Report the value in % with no unit label.

Previously resolved entries follow.
> print(dat)
                         structure.notation  outcome.measure  recorded.result
1  COc1cc(-c2ccc(NC(=O)CN3CCCC3)c(OC)c2)ccc1NC(=O)CN1CCCC1         Activity               42
2  O=C(CN1CCCC1)Nc1ccc(C(=O)c2ccc(NC(=O)CN3CCCC3)cc2)cc1         Activity               24
3  O=C(CN1CCCCCC1)Nc1ccc(Cc2ccc(NC(=O)CN3CCCCCC3)cc2)cc1         Activity               29
4  O=C(CN1CCCC1)Nc1ccc(Cc2ccc(NC(=O)CN3CC[C@H](O)C3)cc2)cc1         Activity               47
5  CN(C)CC(=O)Nc1ccc(Cc2ccc(NC(=O)CN(C)C)cc2)cc1         Activity               58
6  c1cc(NCCN2CCCC2)ccc1Cc1ccc(NCCN2CCCC2)cc1         Activity               28

Would you kindly look at the next entry?
Recall and state the measured Activity for CC(C)(C(=O)Nc1ccc(Cc2ccc(NC(=O)C(C)(C)N3CCCC3)cc2)cc1)N1CCCC1 .
45
